Assay Remarks: Half life in Sprague-Dawley rat at 10 mg/kg, po
Type: ADME, organism-based
Set-up: dose 10 mg/kg, route oral
Settings: in vivo
Property Measured: half-life (h)

{"Chemical String": "O=C1NC(=O)[C@](CNC(=O)c2cc3cc(Cl)ccc3o2)(c2nccs2)N1", "Scale Unit": "h", "half-life": 3.2}
{"Chemical String": "Cn1ccnc1[C@]1(CNC(=O)c2cc3cc(C(F)(F)F)ccc3o2)NC(=O)NC1=O", "Scale Unit": "h", "half-life": 4.3}
{"Chemical String": "Cn1ccnc1[C@]1(CNC(=O)c2cc3cc(Cl)ccc3o2)NC(=O)NC1=O", "Scale Unit": "h", "half-life": 4.2}
